Reference source: patent US6159988A

System: isolated guinea pig ileum precontracted with leukotrienes
Experiment: Relaxation of leukotriene induced contraction of isolated guinea pig ileum
Assay type: cell-based
Details: Cavia porcellus; relaxation of leukotriene precontracted ileum; read-out: App. IC50
MEASUREMENT TYPE: IC50 (nM)
Supply the numeric figure in nM, leaving out any unit text.

For COc1cc(OC)c([C@@H]2CCCC[C@H]2O)c(O)c1C(=O)/C=C/c1ccc(Cl)cc1 (relative stereo) [Compound 4 of Table 1] on isolated guinea pig ileum precontracted with leukotrienes, measured IC50 was 1680

###

Test: Oral bioavailability in the dog
Type: in vivo
Conditions: 10 mg/kg oral (vs 1 mg/kg intravenous), plasma
Structures can show the parent of a compound that is named as a salt.
MEASUREMENT TYPE: bioavailability (%)
Express the result in % but write the number alone.

The compound identified as COc1cc(OC)c([C@@H]2CCCC[C@H]2OC(=O)[C@H](C)N)c(O)c1C(=O)/C=C/c1cccc(Br)c1 [Compound 9 of Table 2, hydrochloride] registered its bioavailability at 73

###

Experiment: Oral bioavailability in the rat
Format: in vivo
Conditions: 10 mg/kg oral (vs 1 mg/kg intravenous), plasma
Where a name gives a salt, the structure may show the parent alone.
MEASUREMENT TYPE: bioavailability (%)
I only need the number, in %, no unit after it.

Just so you know, measured bioavailability for COc1cc(OC)c([C@@H]2CCCC[C@H]2OC(=O)[C@H](C)N)c(O)c1C(=O)/C=C/c1cccc(Br)c1 [Compound 9 of Table 2, hydrochloride] came out at 46
